# measured_target: Epidermal growth factor receptor (Homo sapiens, UniProt P00533, C797S/L858R/T790M)
# Sequence (P00533 25-1210 T790M/C797S/L858R limits assumed): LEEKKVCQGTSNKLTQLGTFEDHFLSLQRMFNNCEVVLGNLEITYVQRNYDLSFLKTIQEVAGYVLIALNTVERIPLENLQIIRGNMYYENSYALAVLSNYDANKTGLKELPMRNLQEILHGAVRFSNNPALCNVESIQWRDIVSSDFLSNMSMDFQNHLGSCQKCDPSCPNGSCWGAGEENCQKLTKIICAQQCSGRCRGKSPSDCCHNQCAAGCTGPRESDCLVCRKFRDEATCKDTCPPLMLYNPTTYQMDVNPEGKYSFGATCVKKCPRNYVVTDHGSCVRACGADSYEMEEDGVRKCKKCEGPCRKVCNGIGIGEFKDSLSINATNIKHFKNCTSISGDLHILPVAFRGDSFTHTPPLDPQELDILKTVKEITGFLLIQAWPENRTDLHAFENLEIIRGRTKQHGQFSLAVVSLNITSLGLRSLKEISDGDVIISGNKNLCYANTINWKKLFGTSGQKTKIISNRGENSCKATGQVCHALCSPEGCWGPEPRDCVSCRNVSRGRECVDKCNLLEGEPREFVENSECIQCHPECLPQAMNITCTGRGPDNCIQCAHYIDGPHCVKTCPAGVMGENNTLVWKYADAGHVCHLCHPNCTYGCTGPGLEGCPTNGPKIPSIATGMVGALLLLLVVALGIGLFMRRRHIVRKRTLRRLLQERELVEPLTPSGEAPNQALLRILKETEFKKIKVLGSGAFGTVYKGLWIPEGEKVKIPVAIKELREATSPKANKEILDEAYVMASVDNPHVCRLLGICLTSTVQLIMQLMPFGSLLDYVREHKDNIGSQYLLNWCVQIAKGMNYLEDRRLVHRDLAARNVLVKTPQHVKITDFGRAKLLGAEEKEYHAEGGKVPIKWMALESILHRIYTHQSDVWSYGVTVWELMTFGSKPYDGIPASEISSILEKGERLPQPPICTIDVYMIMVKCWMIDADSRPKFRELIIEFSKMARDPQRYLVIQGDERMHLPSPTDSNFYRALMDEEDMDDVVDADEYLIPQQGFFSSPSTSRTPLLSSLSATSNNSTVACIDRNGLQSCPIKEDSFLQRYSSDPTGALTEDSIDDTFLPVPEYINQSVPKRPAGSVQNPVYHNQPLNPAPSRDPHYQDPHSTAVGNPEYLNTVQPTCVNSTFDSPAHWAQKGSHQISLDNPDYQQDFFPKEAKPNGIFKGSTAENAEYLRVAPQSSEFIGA
# test: Inhibition of EGFR L858R/T790M/C797S mutant (unknown origin) by ELISA
pIC50: −log10 of the molar value.
quantity_name: pIC50

entry_smiles | measured_target | quantity_name | inequality_operator | numeric_result
COc1cc(N2CCC(N3CCN(C)CC3)CC2)ccc1Nc1ncc(Cl)c(-c2cn(S(=O)(=O)C3CC3)c3ccccc23)n1 | Epidermal growth factor receptor (Homo sapiens, UniProt P00533, C797S/L858R/T790M) | pIC50 | = | 6.65
COc1cc(N2CCC(N3CCN(C)CC3)CC2)ccc1Nc1ncc(Cl)c(-c2cn(C(C)=O)c3ccccc23)n1 | Epidermal growth factor receptor (Homo sapiens, UniProt P00533, C797S/L858R/T790M) | pIC50 | = | 7.11
CCS(=O)(=O)n1cc2c3ccc(cc31)OCCCCCCCOc1cc(ccc1N1CCOCC1)Nc1ncc(Cl)c-2n1 | Epidermal growth factor receptor (Homo sapiens, UniProt P00533, C797S/L858R/T790M) | pIC50 | = | 7.05
CCS(=O)(=O)n1cc2c3cc(ccc31)OCCCCCOc1cc(ccc1N1CCOCC1)Nc1ncc(Cl)c-2n1 | Epidermal growth factor receptor (Homo sapiens, UniProt P00533, C797S/L858R/T790M) | pIC50 | < | 6.00
